- experiment notes: physchem
- Type: physicochemical
- details: 25% 1,4-dioxan, pH 9
# key: entry, value: half-life
Answer with a number only, understood to be in h.

INSERT INTO results (compound, recorded_result) VALUES
  ('CC1OC(=O)c2ccc(Oc3ccc(C(F)(F)F)cc3Cl)cc21 (stereo not shown) [CH(CH3), H, reference compound]', 11),
  ('O=C1OCc2cc(Oc3ccc(C(F)(F)F)cc3Cl)ccc21 [CH2, H, reference compound]', 14.5),
  ('COC1OC(=O)c2ccc(Oc3ccc(C(F)(F)F)cc3Cl)cc21 (stereo not shown) [CH(OCH3), H, reference compound]', 1.2);

# context switch: different compound, same half-life
### Prompt Consider the compound shown here: CC1(C)OC(=O)c2ccc(Oc3ccc(C(F)(F)F)cc3Cl)cc21 What is its recorded half-life?
### Response 1900

---

- experiment notes: physchem
- Assay type: physicochemical
- details: 25% 1,4-dioxan, pH 7
# key: entry, value: half-life
Answer with a number only, understood to be in days.

### Prompt Consider the compound shown here: O=C1OCc2cc(Oc3ccc(C(F)(F)F)cc3Cl)ccc21 [CH2, H, reference compound] What is its recorded half-life?
### Response 2.35

### Prompt Consider the compound shown here: COC1OC(=O)c2ccc(Oc3ccc(C(F)(F)F)cc3Cl)cc21 (stereo not shown) [CH(OCH3), H, reference compound] What is its recorded half-life?
### Response 0.717

### Prompt Consider the compound shown here: CC1(C)OC(=O)c2ccc(Oc3ccc(C(F)(F)F)cc3Cl)cc21 [C(CH3)2, H] What is its recorded half-life?
### Response 205

### Prompt Consider the compound shown here: CC1OC(=O)c2ccc(Oc3ccc(C(F)(F)F)cc3Cl)cc21 (stereo not shown) [CH(CH3), H, reference compound] What is its recorded half-life?
### Response 44
